Test: Permeability of the compound incubated for 10 hrs by PAMPA
Type: ADME
Details: read-out: permeability
Catalogue of Papp at 10 h readings, one per entry.
Express the result in ×10⁻⁶ cm/s but write the number alone.

Guide cases for Papp at 10 h, answers given:
Given the compound Cc1cc(=O)n(O)c(C2CCCCC2)c1Br , what is its reported Papp at 10 h?
3.97

Item under review: Cc1cc(C2CCCCCC2)n(O)c(=O)c1 . Reported Papp at 10 h?
4.42

Fill blank: measured Papp at 10 h of the compound Cc1cc(C2CCCCC2)n(O)c(=O)c1 [CICLOPIROX] is ____.
8.17

State the recorded Papp at 10 h for this entry: CCc1cc(C2CCCCC2)n(O)c(=O)c1
4.53

What does the data say about its Papp at 10 h? Entry: Cc1cc(C2CCCCC2)n(O)c(=O)c1I
7.65

Others:
Item under review: Cc1cc(C2CCCCC2)n(O)c(=O)c1CNC1CCCC1 . Reported Papp at 10 h?
3.89

Could you tell me which Papp at 10 h is on file for O=c1c2ccccc2cc(C2CCCCC2)n1O ?
4.43

Item under review: Cc1cc([C@H]2C[C@H]3CC[C@@H]2C3)n(O)c(=O)c1 . Reported Papp at 10 h?
7.5

---

Tested on: SH-SY5Y
Test: Neuroprotective activity against oxygen-glucose deprivation-induced toxicity in human SH-SY5Y cells assessed as cell viability at 1 uM preincubated for 2 hrs followed by OGD-challenge and measured after 24 hrs by MTT assay (reference value: 54.92 +/- 2.12%)
Assay type: functional
Settings: read-out: Activity
Note to self: class labels come from recorded viability at 1 µM, ranges listed here: low-valued (below 50%), mid-valued (50% to below 70%), high-valued (70% or more)

Check out these entries, answers already filled in.
Lab note: sort CCCc1cc(C)cc(=O)n1O into the matching viability at 1 µM band.
low-valued

Category lookup for the compound Cc1cc(C2CCC2)n(O)c(=O)c1
low-valued

Each compound maps to one class by viability at 1 µM. Which class for Cc1cc(C2CCCCC2)n(O)c(=O)c1I ?
high-valued

Determine which band this compound sits in: O=c1c2ccccc2cc(C2CCCCC2)n1O
high-valued

Form field 'band' for Cc1cc(C2CCCCC2)n(O)c(=O)c1CNC1CCCC1
mid-valued

Form: Item = Cc1cc(Cc2ccccc2)n(O)c(=O)c1 ; Class = ?
low-valued

Please examine the following record next.
Kindly state the category for this compound: O=c1cccc(C2CCCCC2)n1O
mid-valued

---

In this section we review reported solubility at 24 h values for a set of molecules.
Test: Solubility of the compound in […] incubated for 24 hrs by HPLC analysis
Format: physicochemical
Give just the number in µg/mL; leave the unit off.

# count of solved cases: 2
Dear colleague, I am looking for the recorded solubility at 24 h of the following molecule: Cc1cc(C2CCCCC2)n(O)c(=O)c1
1430

Consider the molecule shown here: Cc1cc([C@@H]2C[C@@H]3CC[C@H]2C3)n(O)c(=O)c1.NCCO What is its recorded solubility at 24 h?
10900

---
Dear colleague, I am looking for the recorded solubility at 24 h of the following molecule: Cc1cc([C@H]2C[C@H]3CC[C@@H]2C3)n(O)c(=O)c1
1220

---

Target: UniProtKB Q12809
Sequence (Q12809 whole entry): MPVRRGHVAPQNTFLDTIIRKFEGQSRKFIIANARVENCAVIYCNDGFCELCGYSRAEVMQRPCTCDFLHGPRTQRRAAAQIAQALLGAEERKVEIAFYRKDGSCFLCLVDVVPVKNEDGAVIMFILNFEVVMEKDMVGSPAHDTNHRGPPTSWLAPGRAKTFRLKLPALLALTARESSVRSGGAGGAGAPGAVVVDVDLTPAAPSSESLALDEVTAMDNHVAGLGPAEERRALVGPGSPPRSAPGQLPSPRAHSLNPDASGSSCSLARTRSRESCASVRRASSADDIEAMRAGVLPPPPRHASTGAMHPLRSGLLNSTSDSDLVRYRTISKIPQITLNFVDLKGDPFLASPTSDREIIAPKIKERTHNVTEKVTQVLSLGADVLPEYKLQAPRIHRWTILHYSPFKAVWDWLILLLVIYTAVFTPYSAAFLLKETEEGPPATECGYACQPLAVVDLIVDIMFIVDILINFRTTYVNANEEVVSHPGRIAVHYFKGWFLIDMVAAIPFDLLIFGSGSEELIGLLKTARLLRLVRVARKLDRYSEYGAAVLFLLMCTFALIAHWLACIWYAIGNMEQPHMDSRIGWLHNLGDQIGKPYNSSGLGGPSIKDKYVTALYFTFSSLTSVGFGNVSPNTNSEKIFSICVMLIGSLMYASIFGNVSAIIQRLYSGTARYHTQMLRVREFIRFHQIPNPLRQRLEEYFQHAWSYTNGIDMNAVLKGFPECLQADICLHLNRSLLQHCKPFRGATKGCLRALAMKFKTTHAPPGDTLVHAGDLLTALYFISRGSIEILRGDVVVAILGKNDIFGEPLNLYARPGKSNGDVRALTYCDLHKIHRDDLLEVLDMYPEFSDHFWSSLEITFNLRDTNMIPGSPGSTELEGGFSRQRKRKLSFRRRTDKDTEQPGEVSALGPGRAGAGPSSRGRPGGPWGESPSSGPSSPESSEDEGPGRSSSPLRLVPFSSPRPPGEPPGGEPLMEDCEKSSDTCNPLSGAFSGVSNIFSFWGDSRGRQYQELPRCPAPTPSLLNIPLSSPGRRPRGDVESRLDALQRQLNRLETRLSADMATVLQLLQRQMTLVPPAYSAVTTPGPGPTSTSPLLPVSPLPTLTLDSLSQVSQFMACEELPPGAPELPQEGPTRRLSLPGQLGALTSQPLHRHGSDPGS
Experiment: Inhibition of human ERG stably expressed in CHO cells at -80 mV by automated Qpatch electrophysiological assay
IC50 listing for selected molecules.

What value of IC50 has been reported for the following molecule? Cc1cc([C@@H]2C[C@@H]3CC[C@H]2C3)n(O)c(=O)c1.NCCO
> 40 µM

Then there is this molecule:
Any idea what its IC50 is? The molecule is Cc1cc(C2CCCCC2)n(O)c(=O)c1.NCCO [CICLOPIROX OLAMINE]
> 40 µM

---

// values below are reported viability at 1 µM
System: SH-SY5Y
Assay: Neuroprotective activity against oxygen-glucose deprivation-induced toxicity in human SH-SY5Y cells assessed as cell viability at 1 uM preincubated for 2 hrs followed by OGD-challenge and measured after 24 hrs by MTT assay (reference value: 54.92 +/- 2.12%)
Type: functional
Conditions: read-out: Activity
Report only the number, with the unit % understood.

Could you share which viability at 1 µM value was measured for Cc1cc(C2CCCCC2)n(O)c(=O)c1CNC(C)C ?
61

So what's the measured viability at 1 µM for this one? CNCc1c(C)cc(C2CCCCC2)n(O)c1=O
60.9

Would you mind telling me what viability at 1 µM value was observed for CCCNCc1c(C)cc(C2CCCCC2)n(O)c1=O ?
61

---

Test system: SH-SY5Y
Assay: Neuroprotective activity against oxygen-glucose deprivation-induced toxicity in human SH-SY5Y cells assessed as cell viability at 1 uM preincubated for 2 hrs followed by OGD-challenge and measured after 24 hrs by MTT assay (reference value: 54.92 +/- 2.12%)
Assay type: functional
Conditions: read-out: Activity
Please respond with true when measured viability at 1 µM is strictly beneath 60%, and with false in all other cases.

Previously resolved entries follow.
Would you kindly verify if viability at 1 µM of Cc1cc(C2CCCCCC2)n(O)c(=O)c1 is strictly less than 60%?
false

# check: viability at 1 µM < 60% for Cc1cc([C@H]2C[C@H]3CC[C@@H]2C3)n(O)c(=O)c1
false

Alright, here's another molecule for you.
Is the reported viability at 1 µM for CCCCCCCc1cc(C)cc(=O)n1O strictly below 60%?
false

---

Test system: SH-SY5Y
Assay: Neuroprotective activity against oxygen-glucose deprivation-induced toxicity in human SH-SY5Y cells assessed as cell viability at 1 uM preincubated for 2 hrs followed by OGD-challenge and measured after 24 hrs by MTT assay (reference value: 54.92 +/- 2.12%)
Assay type: functional
Conditions: read-out: Activity
Measured metric: viability at 1 µM
Hi, when you answer, please include the unit after the number. Thanks!

Below, each entry is followed by its recorded viability at 1 µM result.
API: value(readout= viability at 1 µM, system= SH-SY5Y, query= Cc1cc(C2CC2)n(O)c(=O)c1 )
58.8%

Please tell me: viability at 1 µM of C#CCNCc1c(C)cc(C2CCCCC2)n(O)c1=O , system SH-SY5Y?
63.6%

Next:
Form: Entry = CCCCCCCCCc1cc(C)cc(=O)n1O | System = SH-SY5Y | viability at 1 µM = ____
53%

Record Cc1cc(=O)n(O)c(C2CCCCC2)c1Br : what is its viability at 1 µM with SH-SY5Y?
81%

Hi! What's the reported viability at 1 µM for Cc1cc(C2CCCCC2)n(OCC(=O)O)c(=O)c1 on SH-SY5Y?
56%

# returns recorded viability at 1 µM (system: SH-SY5Y) for COC(=O)COn1c(C2CCCCC2)cc(C)cc1=O
49.9%
